Species: Homo sapiens
Assay: Selectivity index, ratio of IC50 for plasma kallikrein (unknown origin) to IC50 for coagulation factor XIa (unknown origin)
Metric name: Ratio IC50

Here's what some known entries look like.
Cc1ccc(CN2CCN(C(=O)C[C@H](NC(=O)/C=C/c3cc(Cl)ccc3-n3cnnn3)C(=O)Nc3ccc(C(=O)O)cc3)CC2)cc1 : 45
O=C(/C=C/c1cc(Cl)ccc1-n1cnnn1)N[C@@H](CC(=O)N1CCN(c2ccccc2)CC1)C(=O)Nc1ccc(C(=O)O)cc1 : 1960

[1] O=C(/C=C/c1cc(Cl)ccc1-n1cnnn1)N[C@@H](CC(=O)N1CCN(CC2CC2)CC1)C(=O)Nc1ccc(C(=O)O)cc1
[2] O=C(/C=C/c1cc(Cl)ccc1-n1cnnn1)N[C@@H](CCC(=O)N1CCN(CC2CC2)CC1)C(=O)Nc1ccc(C(=O)O)cc1
Query :: Lab note: check whether 1 or 2 shows the higher recorded Ratio IC50. Refer to your chosen item by its label in the answer.
Result :: 1

Sourced from ChEMBL document CHEMBL5046289
